This collection of values is drawn from the Human Domainome abundance scans (Beltran et al. 2025).

Collected abundance fitness values appear next to each entry.
B1: Intersectin-1, residues 909 to 971; numbered along this chain, Q15811 (parent)
chain: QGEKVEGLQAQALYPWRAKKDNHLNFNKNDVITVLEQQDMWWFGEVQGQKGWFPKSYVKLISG

Variants of: B1
Assay: abundance fitness (aPCA) (normalised: wild type 0, dead -1); higher = more abundant; growth selection in yeast, the domain comes from the species named
Settings: Homo sapiens
Could you respond with only the numeric value?

Example results:
- D30W: -0.331
- K28H: -0.253

Look up abundance fitness for this variant: `M40S`
0.013

Look up abundance fitness for this variant: `V5H`
-0.657

Look up abundance fitness for this variant: `Q9T`
-0.076

Look up abundance fitness for this variant: `Y57W`
-0.258

Look up abundance fitness for this variant: `N29Q`
-0.041

Look up abundance fitness for this variant: `Q37T`
-0.052

Look up abundance fitness for this variant: `I61R`
-0.155

Look up abundance fitness for this variant: `G48H`
-0.381
